Kindly state pIC50 for each of the entries shown.
Tested on: MYB mRNA
Assay Comment: RT-qPCR splicing assay, MYB mRNA canonical (CJ) and alternative (AJ) junction
Assay type: cell-based, human
Recorded Conditions: Homo sapiens, RT-qPCR, MYB canonical junction mRNA decrease; read-out: MYB CJ (decrease in canonical junction mRNA, IC50)
pIC50: −log10 of the molar value. Structures can show the parent of a compound that is named as a salt.

Worked cases, answers included:
{"Molecule": "COc1cc(-c2ncc3cc(N4C[C@@H](C)N[C@@H](C)C4)ccc3n2)cn2cc(C)nc12", "Assayed Target": "MYB mRNA", "pIC50": "6.00 to 7.00"}
{"Molecule": "Cc1cn2cc(-c3ncc4cc(N5C[C@H](C)N[C@@H](C)C5)ccc4n3)cc(C#N)c2n1", "Assayed Target": "MYB mRNA", "pIC50": "> 7.00"}
{"Molecule": "C[C@@H]1CN(c2ccc3nc(-c4cc(F)c5nn(C)cc5c4)ncc3c2)C[C@H](C)N1", "Assayed Target": "MYB mRNA", "pIC50": "6.00 to 7.00"}
{"Molecule": "Cc1nc2c(F)cc(-c3ncc4cc(N5C[C@@H](C)N[C@@H](C)C5)ccc4n3)cn2c1F", "Assayed Target": "MYB mRNA", "pIC50": "5.00 to 6.00"}
{"Molecule": "C[C@@H]1CN(c2cc(F)c3nc(-c4cc5cn(C)nc5c(F)c4O)ccc3c2)C[C@H](C)N1 [Compound 763, hydrochloride]", "Assayed Target": "MYB mRNA", "pIC50": "> 7.00"}

Provide pIC50 values for the following items, in order.
1. Cc1c(O)c(-c2ncc3cc(N4CCC(N5CCC5)CC4)ccc3n2)cc2cn(C)nc12
2. Cc1c(O)c(-c2nc(C3CCC3)c3cc(N4C[C@@H](C)N[C@@H](C)C4)ccc3n2)cc2cn(C)nc12

1: 6.00 to 7.00; 2: 5.00 to 6.00

* * *

Test system: HTT mRNA
Assay Comment: RT-qPCR splicing assay, HTT mRNA canonical (CJ) and alternative (AJ) junction
Assay type: cell-based, human
Recorded Conditions: Homo sapiens, HTT canonical junction mRNA, RT-qPCR; read-out: HTT CJ (decrease in CJ mRNA levels, IC50)
Experimental Readout: IC50

{"Compound": "Cn1cc2cc(-c3ccc4nc(N5CCNC(C)(C)C5)ccc4n3)c(O)cc2n1 [Compound 120]", "Experimental Readout": "IC50", "Observed": "1000 to 10000 nM"}
{"Compound": "Cc1nc2cc(O)c(-c3ccc4nc(N5CCC(NC(C)(C)C)C5)ccc4n3)cc2n1C (stereo not drawn) [Compound 339]", "Experimental Readout": "IC50", "Observed": "100 to 1000 nM"}
{"Compound": "Cn1cc2cc(-c3ccc4cc(N5CCC(NC(C)(C)C)C5)ncc4n3)c(O)cc2n1 (stereo not drawn) [Compound 449]", "Experimental Readout": "IC50", "Observed": "1000 to 10000 nM"}
{"Compound": "Cn1cc2cc(-c3ccc4nc(C5CCNCC5)ccc4n3)c(F)cc2n1 [Compound 193]", "Experimental Readout": "IC50", "Observed": "1000 to 10000 nM"}
{"Compound": "Cc1nc2c(C)c(O)c(-c3ccc4nc(N5CC[C@@H](NC(C)(C)C)C5)ncc4n3)cc2o1 [Compound 436]", "Experimental Readout": "IC50", "Observed": "< 100 nM"}

With those in mind, consider the next compound.
For CN[C@H]1CCN(c2ccc3nc(-c4cc(C#N)c5nc(C)cn5c4)ncc3n2)C1 [Compound 406] the compound record lists IC50 as 100 to 1000 nM

* * *

Test system: Target C
Assay Comment: RT-qPCR canonical junction panel assay, Target C mRNA
Format: cell-based
Recorded Conditions: Table 4, read-out: Target C IC50 (decrease in CJ mRNA levels)
pIC50: −log10 of the molar value.
Please respond with reported pIC50 for every item in the list.

Here's what some known entries look like.
{"Compound": "C[C@@H]1CN(c2ccc3nc(-c4cc5cn(C)nc5cc4O)ncc3c2)C[C@@H](C)N1 [Compound 753]", "pIC50": "< 5.00"}
{"Compound": "CN[C@H]1CCN(c2ccc3nc(-c4cc5cn(C)nc5c(C)c4O)ncc3n2)C1 (single isomer, unassigned) [Compound 369]", "pIC50": "5.00 to 6.00"}

--- query ---
Field pIC50 (entry Cc1c(O)c(-c2ncc3cc(N4C[C@@H](C)N[C@H](C)C4)ccc3n2)cc2cn(C)nc12 (single isomer, unassigned) [Compound 661] ) reads 6.00 to 7.00

* * *

Tested on: HTT mRNA
Assay Comment: RT-qPCR splicing assay, HTT mRNA canonical (CJ) and alternative (AJ) junction
Format: cell-based, human
Recorded Conditions: Homo sapiens, RT-qPCR, HTT canonical junction mRNA decrease; read-out: HTT CJ (decrease in canonical junction mRNA, IC50)
pIC50: −log10 of the molar value. Structures can show the parent of a compound that is named as a salt.
Experimental Readout: pIC50

Reference set (3 entries):
{"Compound": "Cc1nc2c(F)cc(-c3ncc4cc(N5C[C@@H](C)N[C@@H](C)C5)ccc4n3)cn2n1", "pIC50": "5.00 to 6.00"}
{"Compound": "Cc1nc(-c2cc(F)c3nn(C)cc3c2)nc2ccc(N3CCC(N4CCC4)CC3)cc12", "pIC50": "5.00 to 6.00"}
{"Compound": "Cc1cn2cc(-c3ncc4cc(N5C[C@@H](C)NC6(CC6)C5)ccc4n3)cc(F)c2n1 (single isomer, unassigned)", "pIC50": "5.00 to 6.00"}

Continue with the next compound.
Bench note, HTT mRNA: entry C[C@@H]1CN(c2cc(F)c3nc(-c4cc5cn(C)nc5c(F)c4O)ccc3c2)C[C@H](C)N1 [Compound 763, hydrochloride] , its pIC50 = > 7.00

* * *

System: HTT mRNA
Assay Comment: RT-qPCR splicing assay, HTT mRNA canonical (CJ) and alternative (AJ) junction
Assay type: cell-based, human
Recorded Conditions: Homo sapiens, HTT canonical junction mRNA, RT-qPCR; read-out: HTT CJ (decrease in CJ mRNA levels, IC50)
pIC50: −log10 of the molar value.
Experimental Readout: pIC50

{"Compound": "Cn1cc2cc(-c3ncc4cc(N5CCC(N6CCC6)CC5)ccc4n3)c(O)c(F)c2n1", "Observed": "6.00 to 7.00"}
{"Compound": "Cn1cc2cc(-c3ccc4nc(N5CCC(N)C5)ccc4n3)c(O)c(F)c2n1 (stereo in doubt) [Compound 363]", "Observed": "> 7.00"}
{"Compound": "Cc1nc2c(C)c(O)c(-c3ccc4cc(N5CC[C@@H](NC6CC6)C5)ncc4n3)cc2o1", "Observed": "> 7.00"}
{"Compound": "Cc1nc2c(F)c(O)c(-c3ccc4nc(N5CC[C@H](NC6CCC6)C5)ccc4n3)cc2o1 (single isomer, unassigned)", "Observed": "> 7.00"}
{"Compound": "Cc1nc2c(C)c(O)c(-c3ccc4nc(N5CC[C@@H](NC6(CF)CC6)C5)ccc4n3)cc2o1 (single isomer, unassigned)", "Observed": "> 7.00"}

For every record below, what is its pIC50?
1. Cc1c(O)c(-c2ccc3nc(N4CCC(NC5(C)CC5)C4)ccc3n2)cc2cn(C)nc12 (centres unmarked)
2. Cn1cc2cc(-c3ccc4nc(N5CC[C@H](NCC6CC6)C5)ccc4n3)c(O)cc2n1
3. Cc1nc2cc(O)c(-c3ccc4nc(N5CCNC6(CC6)C5)ccc4n3)cc2o1
4. Cc1nc2c(C)c(O)c(-c3ccc4nc(N5CC[C@H](NC6(CF)CC6)C5)ccc4n3)cc2o1 (single isomer, unassigned)
5. Cc1nc2cc(O)c(-c3ccc4nc(N5CCN[C@@H](C)C5)ccc4n3)cc2o1
6. CCc1nc2cc(O)c(-c3ccc4nc(N5CCC(NC(C)(C)C)C5)ccc4n3)cc2o1 (centres unmarked)

> 7.00
> 7.00
5.00 to 6.00
> 7.00
6.00 to 7.00
5.00 to 6.00

* * *

Test system: Target C
Assay Comment: RT-qPCR canonical junction panel assay, Target C mRNA
Type: cell-based
Recorded Conditions: Table 4, read-out: Target C IC50 (decrease in CJ mRNA levels)
pIC50: −log10 of the molar value.
Experimental Readout: pIC50

{"Compound": "Cn1cc2cc(-c3ccc4nc(N5CC[C@H](NC6(CF)CC6)C5)ccc4n3)c(O)cc2n1", "Observed": "6.00 to 7.00"}
{"Compound": "Cn1cc2cc(-c3ccc4nc(N5CC[C@@H](N[C@H]6C[C@H](F)C6)C5)ccc4n3)c(O)c(F)c2n1 (single isomer, unassigned)", "Observed": "> 7.00"}

Pending compound:
pIC50 measured on Cc1nc2c(C)c(O)c(-c3ccc4nc(N5CC[C@@H](NC6CCC6)C5)ccc4n3)cc2o1 = 6.00 to 7.00
